System: NCI-H322M lung
Assay: NCI-60 one-dose screen, 48 h (100 = growth as untreated, 0 = no growth, -100 = all killed)
Conditions: 10 µM unless noted
Protocol: Growth inhibition of the NCI-H322M human Non-Small Cell Lung tumor cell line is measured as a screen for anti-cancer activity. Cells are grown in 96 well plates and exposed to the test compound for 48 hours. Compounds are tested at a single concentration, which is 10^-5 M for most compounds. The reported endpoint is percent growth (GI% or GIPRCNT), where numbers from 0 - 100% represent growth inhibition, and numbers from -100% - 0 represent cell death. […]
Compounds without any hit were thinned out: in the full panel of roughly 83,000, 20% have a hit.
Experimental Readout: growth (%)
Respond with the bare value in %.

{"Compound String": "O=C(Cc1ccccc1)NNc1nc(Cl)nc(N2CCN(C(c3ccccc3)c3ccccc3)CC2)n1", "growth (%)": 89.7}
{"Compound String": "COc1cccc(C(=O)NNc2nc(Cl)nc(N3CCN(C(c4ccccc4)c4ccccc4)CC3)n2)c1", "growth (%)": 88.9}

Continue with the compound presented below.
Note down growth recorded for Cn1c2ccccc2c2c3c(c4c5ccccc5n(C)c4c21)C(=O)OC3
87.6
